System: PPARg:RXRa 30nM:10nM, anti-RXR (NR concentration 30 nM, RXRa partner concentration 10 nM)
Experiment: PBM binding z-score (relative to random genomic background probes); higher = stronger binding; sequences stand for … in GC…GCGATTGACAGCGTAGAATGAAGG
# if value of PBM binding z-score reaches 2, tag criterion met; if it stays below, tag criterion not met

>  <Sequence Text>
TCTCGGGGGACACGAAGGTCAGAGCTTTCCAGAG

>  <Target Desc>
PPARg:RXRa 30nM:10nM, anti-RXR (NR concentration 30 nM, RXRa partner concentration 10 nM)

>  <Answer Label>
criterion met

$$$$
>  <Sequence Text>
TCTGCTAGGTCAACGATGGTCAGCTCATCTGCTA

>  <Target Desc>
PPARg:RXRa 30nM:10nM, anti-RXR (NR concentration 30 nM, RXRa partner concentration 10 nM)

>  <Answer Label>
criterion not met

$$$$

Ask: // inclusive: PBM binding z-score at least 2? input: AGTCAAAGTTCAGGATGAGGTAACGTAAAGCACG
Reply: criterion met

Ask: Now consider AGAACGAGGGCACGCTGAGTTGATAACAGAGTAG and answer again.
Reply: criterion not met

Ask: # iterate: GCGACTCGGGCATCAGCAGGTTACCATAACTTAA
Reply: criterion not met

Ask: Check TCTTGTAGATCAACAGGAGTTTAAGAAAGATCGA too.
Reply: criterion met

Ask: Please do the same for CCTTACGGGTCACGAGGGTATAGCACGACGAGCG as well.
Reply: criterion met

Ask: What about this sequence? TAGCCTAGGTCATGCGTGCCAGTATAGTGTCGGC
Reply: criterion not met

Ask: Now this one: ATGTCTAGGTAACCAAGTTCAGTGAATGCCGAAC
Reply: criterion not met

Hello, the source for this data is the supplement of paper PMC6555819, in case you need it.
